test system: MCF7 breast; assay: NCI tumour cell line growth inhibition, 48 h
# reported GI50; entries follow
measured_parameter: GI50

> print(dat)
                                    molecule    result
 1  COc1ccc(-c2nsc3c2NC(=O)CC3c2ccc(F)cc2)cc1 (configuration not stated)   3.29 µM
 2  CCN(CC)CCCC(C)Nc1cc(-c2ccc(C(F)(F)F)cc2)c(C#N)c2nc3ccccc3n12 (configuration not stated)    2.1 µM
 3  CN(C)CCCNC(=O)c1ccc2oc3cc4ccccc4c(=O)n3c2c1   > 50 µM
 4  O=C(NCCc1ccccc1)C(c1ccccc1)(c1ccccc1)c1ccccc1     26 µM
 5              NC(=O)C1c2ccccc2C=Cc2ccccc21  > 100 µM
 6  Cc1nc2ccccn2c1NC(=O)NNC(=S)Nc1ccc(Br)cc1   29.4 µM
 7  Cn1cc(-c2csc(-c3cn(C)c4ccc(Br)cc34)n2)c2cnccc21   1.78 µM
 8  C=C(C)[C@@H]1CC[C@]2(C(N)=O)CC[C@]3(C)[C@H](CC[C@@H]4[C@@]5(C)CC[C@H](O)C(C)(C)[C@@H]5CC[C@]43C)[C@@H]12   2.91 µM
 9  COc1cc(-c2nc(NC(C)=O)sc2-c2ccnc(NCCNS(=O)(=O)c3ccccc3)n2)ccc1Cl    2.4 µM
10  COc1ccccc1-c1cc(/C=C2\C(=O)Nc3ncc(Br)cc32)cc(Br)c1O   8.05 µM
11  NCCCCCCCCn1c2c(c3ccccc3c1=O)C(=O)c1ccccc1-2   7.45 µM
12  Cc1ccc(S(=O)(=O)Oc2ccc([N+](=O)[O-])cc2[N+](=O)[O-])cc1   4.13 µM
13  COC(=O)C(Cc1cnc[nH]1)NC(=O)CNC(=O)CCCn1c(=O)c2c3ccccc3n(C)c2n2nnc(-c3ccccc3)c12 (configuration not stated)  > 100 µM
14                      O=Nc1ccc(O)c2ccccc12   1.81 µM
15  O=C(CSc1nc2ccccc2nc1-c1ccccc1)Nc1ccc(Cl)cc1   44.3 µM
16  N=C(N)/N=C(\N)c1c(-c2cc(O)ccc2O)nc2sccn12   37.8 µM
17           COc1c2c3ccccc3nc-2n(C)c2ccccc12   4.31 µM

----------
# reported TGI; entries follow
system: HCT-116 colon; test: NCI tumour cell line growth inhibition, 48 h
measured_parameter: TGI (µM)

> print(dat)
                                    compound  measurement.qualifier  result
 1  CNC(=O)c1c(NC(=O)c2ccc(C(F)(F)F)cc2)sc2c1CCC(=O)C2                      =     1.4
 2  C[N+](C)(C)CC(=O)N/N=C(\CCC(=O)NCCc1ccccc1)CC(=O)c1ccccc1                      >     100
 3  CCOC(CCCNCCCn1c2c(c3cc(OC)c(OC)cc3c1=O)C(=O)c1cc3c(cc1-2)OCO3)OCC                      =    9.83
 4  c1ccc(CSc2ccccc2CN2CCN(Cc3ccccc3SCc3ccccc3)CCN(Cc3ccccc3SCc3ccccc3)CC2)cc1                      =    2.03
 5  Cc1nnc(N=Nc2c(O)[nH]c3c(Cl)cc(Cl)cc23)n1N                      >     100
 6  O=C(CCCCCCCn1cc(-c2cccnc2)nn1)Nc1ccccc1-c1ccccc1                      >    32.9
 7  Cn1c2c(c3ccccc31)CCN1OCC=C[C@@H](C(=O)O)[C@@H]21                      >     100
 8  O=C(CSc1nc2ccccc2nc1-c1ccccc1)Nc1ccc(Cl)cc1                      =      24
 9  Cc1ccc2[nH]c3c(C)c4c(c(C)c3c2c1)CN(C)C=C4                      =    10.6
10  COCc1c(CO)cnc(C)c1OC1OC(CO)C(O)C(O)C1O (stereo not given)                      >     100
11  CC(=O)NC(CCCCN(Cc1ccccc1)C(=O)NCCCl)C(=O)NCc1ccccc1 (stereo not given)                      >     100
12  C/C1=C/C(=O)O[C@@H]2C[C@@H](CC[C@H](C)/C=C\C=C\CC1)O[C@@](O)([C@@H]1CSC(=O)N1CO)C2                      =      20
13  CCOc1cc2ccc3c4cc(OC)c(OC)cc4cnc3c2cc1OCC                      >     100
14  COc1c(C)c2c(c3c1c(=O)c1ccccc1n3C)C=CC(C)(C)O2                      =    44.8
15  CCOC(=O)/C(C=Nc1c(C)n(C)n(-c2ccccc2)c1=O)=C(/O)c1ccccc1                      >     100
16  CN[C@@H](C)C(=O)N[C@H]1CN(C(=O)CC(C)C)CC[C@H]2CC[C@@H](C(=O)NC(c3ccccc3)c3ccccc3)N2C1=O                      >     100
17  CC(=O)[O-].CC(=O)[O-].O=C(N/N=C/c1cc(Cl)cc(Cl)c1O)c1ccncc1.[Ni+2]                      >     100
18       Nc1nc(Cl)cc(NCCCNc2cc(Cl)nc(N)n2)n1                      >     100
19  CC1C(=NO)C(C)C(c2ccccc2)N(N=O)C1c1ccccc1 (stereo not given)                      =    33.3
20      Cc1ccccc1[P+](C)(c1ccccc1C)c1ccccc1C                      =    38.5

Recorded values, source PubChem BioAssay (NCI).
